Origin of measurements: paper PMC4546627

# Tested target: T1, 14-3-3ζ (Homo sapiens, UniProt P63104)
# T1 chain: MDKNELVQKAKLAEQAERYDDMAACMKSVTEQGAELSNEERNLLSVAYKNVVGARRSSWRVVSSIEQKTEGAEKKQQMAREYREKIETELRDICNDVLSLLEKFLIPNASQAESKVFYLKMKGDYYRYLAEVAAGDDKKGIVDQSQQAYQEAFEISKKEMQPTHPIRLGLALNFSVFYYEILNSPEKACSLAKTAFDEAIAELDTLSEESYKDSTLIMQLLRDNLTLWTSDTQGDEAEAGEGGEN
# Protocol description: 31P NMR
Where no end group is shown, it is not given here. [ ]: non-standard residue; d: D form. pS = N[C@@H](COP(=O)(O)O)C(=O)O
Property: Kd

// query Kd lookup needed for KINRSA[pS]EPSLHRAAH [C-Raf KH16p phosphopeptide 615-630] , thanks.
// result 17.7 µM
